Below, each entry is listed with its recorded Activity.
# Test system: Schistosoma mansoni
# Protocol summary: Antischistosomal activity against Schistosoma mansoni infected in NMRI mouse assessed as reduction in total worm burden at 100 mg/kg, po administered as single dose starting on day 49 post-infection and measured at 28 days post treatment relative to control
# Assay type: functional
# Design: scale not given: the % may be the effect or the level left
# Run conditions: time 28 day
Write it as a number; the unit % goes unstated.

O=C(C1CCCCC1)N1CC(=O)N2CCc3ccccc3C2C1 (stereo unspecified)    18
CC1(C)NC(=O)C(c2ccc(F)c(C(F)(F)F)c2)C1=O (stereo unspecified)    0
CC1(C)CN(c2ccc(F)c(C(F)(F)F)c2)C(=O)N1    59
CC1(C)C(=O)N(c2ccc(F)c(C(F)(F)F)c2)C(=O)N1CC(N)=O    25
CC1(C)NC(=O)N(c2ccc([N+](=O)[O-])c(C(F)(F)F)c2)C1=O [NILUTAMIDE]    31

Here is another compound to look at.
Activity of `CC1(C)NC(=O)N(c2ccc(F)c(C(F)F)c2)C1=O` , assay on Schistosoma mansoni, is 94

* * *

# Protocol summary: Kinetic solubility of compound at pH 6.5 phosphate buffer by nephelometry
# Type: physicochemical
# Run conditions: read-out: Kinetic_solubility
Listed below: solubility kinetic values for each entry.

// below: answered compounds
CC1(C)NC(=O)N(c2cnccn2)C1=O    > 100 µg/mL
CC1(C)CC(=O)N(c2ccc(F)c(C(F)(F)F)c2)C(=O)N1    25 µg/mL
CC1(C)NC(=O)N(c2ccc(F)c(C(F)F)c2)C1=O    > 100 µg/mL
Cc1ccc(N2C(=O)NC(C)(C)C2=O)cc1C(F)(F)F    > 100 µg/mL

For this compound ( `CC1(C)NC(=O)N(c2cccnc2)C1=O` ), measured solubility kinetic is > 100 µg/mL

solubility kinetic measured on `CC1(C)C(=O)N(c2ccc(F)c(C(F)(F)F)c2)C(=O)N1CC#N` = 25 µg/mL

* * *

# Protocol summary: Intrinsic clearance in human liver microsome in presence of NADPH-regenerating system incubated over 60 mins by LC-MS analysis
# Run conditions: microsomes, 1 h
Measured CLH, listed per entry.

CC1(C)OC(=O)N(c2ccc(F)c(C(F)(F)F)c2)C1=O    12 µL/min/mg
CC1(C)CC(=O)N(c2ccc(F)c(C(F)(F)F)c2)C(=O)N1    < 7 µL/min/mg
CN(C)C(=O)c1cc(N2C(=O)NC(C)(C)C2=O)ccc1F    < 7 µL/min/mg
CC1(C)NC(=O)N(c2ccc(Cl)c(C(F)(F)F)c2)C1=O    < 7 µL/min/mg
CC1(C)NC(=O)N(c2ccnc(C(F)(F)F)c2)C1=O    < 7 µL/min/mg

Looking up `CCN1C(=O)N(c2ccc(F)c(C(F)(F)F)c2)C(=O)C1(C)C` , I found its CLH recorded as 30 µL/min/mg

* * *

# Target or test system: UniProt P02768
# Sequence (P02768 whole entry): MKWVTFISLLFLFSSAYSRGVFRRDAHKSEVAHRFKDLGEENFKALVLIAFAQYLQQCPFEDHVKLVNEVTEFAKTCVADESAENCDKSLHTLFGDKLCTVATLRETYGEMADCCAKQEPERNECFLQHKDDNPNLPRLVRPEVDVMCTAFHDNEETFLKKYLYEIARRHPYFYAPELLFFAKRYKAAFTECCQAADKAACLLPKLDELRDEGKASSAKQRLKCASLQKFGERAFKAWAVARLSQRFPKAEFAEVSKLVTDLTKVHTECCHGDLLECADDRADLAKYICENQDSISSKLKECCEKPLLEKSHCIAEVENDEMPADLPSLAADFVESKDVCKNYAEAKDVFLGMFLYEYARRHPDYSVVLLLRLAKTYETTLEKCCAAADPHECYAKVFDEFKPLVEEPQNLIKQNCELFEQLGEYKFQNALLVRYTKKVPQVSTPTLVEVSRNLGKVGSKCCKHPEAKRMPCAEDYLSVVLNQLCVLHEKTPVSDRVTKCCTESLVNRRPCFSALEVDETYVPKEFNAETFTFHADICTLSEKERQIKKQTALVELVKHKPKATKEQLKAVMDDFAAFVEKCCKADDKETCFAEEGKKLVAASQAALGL
# Protocol summary: Protein binding in immobilized human serum albumin by HPLC analysis
# Assay type: ADME
# Run conditions: isolated protein
Classify by measured PPB: Criterion met if it is equal to or exceeds 20%, Criterion not met if it is smaller.

For orientation, consider the following solved cases.
CC1(C)CNC(=O)N(c2ccc(F)c(C(F)(F)F)c2)C1=O    Criterion met
CC1(C)CC(=O)N(c2ccc(F)c(C(F)(F)F)c2)C1=O    Criterion met
CC1(C)NC(=O)N(c2cnccn2)C1=O    Criterion not met
O=C1CNC(=O)N1c1ccc(F)c(C(F)(F)F)c1    Criterion met
O=C1NC2(CCCCC2)C(=O)N1c1ccc(F)c(C(F)(F)F)c1    Criterion met
CN(C)C(=O)c1cc(N2C(=O)NC(C)(C)C2=O)ccc1F    Criterion not met
CC1(C)NC(=O)N(c2ccc(C(F)(F)F)nc2)C1=O    Criterion not met
CC1(C)OC(=O)N(c2ccc(F)c(C(F)(F)F)c2)C1=O    Criterion met
O=C1C2CCCN2C(=O)N1c1ccc(F)c(C(F)(F)F)c1 (stereo not drawn)    Criterion met
CC1(C)NC(=O)N(c2ccc([N+](=O)[O-])c(C(F)(F)F)c2)C1=O [NILUTAMIDE]    Criterion met

## Task Would you say `CC1(C)NC(=O)N(c2ccc(F)c(C(F)(F)F)c2)C1=O` shows PPB at minimum 20%?
## Result Criterion met
